- target or system: T1, Lassa NPn (N-terminal portion of NP encoding residues 1-340) (Lassa virus lineage IV, strain Josiah, UniProt P13699)
- T1 construct: source: bought: Zalgen (recombinant)
- T1 sequence (P13699 1-340): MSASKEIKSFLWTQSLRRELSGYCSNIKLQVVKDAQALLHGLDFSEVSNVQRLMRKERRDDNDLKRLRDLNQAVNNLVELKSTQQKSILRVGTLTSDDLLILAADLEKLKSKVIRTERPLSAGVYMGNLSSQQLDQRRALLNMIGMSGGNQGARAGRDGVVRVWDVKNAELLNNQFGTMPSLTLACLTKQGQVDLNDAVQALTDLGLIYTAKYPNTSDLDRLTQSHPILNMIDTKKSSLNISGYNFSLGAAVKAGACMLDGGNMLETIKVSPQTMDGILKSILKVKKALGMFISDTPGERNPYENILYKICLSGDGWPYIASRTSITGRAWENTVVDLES
- protocol details: SPR; ProteOn XPR36; […] (20 ug/mL in 10 mM sodium acetate pH 5.0); […]; Langmuir model
- condition info: both partners purified
kon reference
Report the figure in M⁻¹ s⁻¹ without appending any unit label.

sdAb H6 (VHH, also called clone H6; Bt-H6; source: E. coli Tuner (DE3), periplasmic, purified (osmotic shock, IMAC, gel filtration)) VHH: DVQLQASGGGVVQPGGSLRLSCVASGFTLVYYGIGWFRQAPGKEREGVSCISSNDGSTYYADSVKGRFTISRDAAKNTVYLQMNSLKPEDTAVYYCATELGNTHRGSFFPNRRVKRCRTDDFASWGQGTQVTVSS :: 610000
sdAb E10 (VHH, source: E. coli Tuner (DE3), periplasmic, purified (osmotic shock, IMAC, gel filtration)) VHH: DVQLQASGGGLVQAGASLRLSCAASGFTYTMGWFRQAPGQEREFVAAIARSGGTTYYTDSVKGRFTISRDNAKKTVFLQLNSLKPEDTAVYYCAADALPYSAQSMSTRNPGYWGQGTQVTVSS :: 1.9e+06
sdAb F3 (VHH, source: E. coli Tuner (DE3), periplasmic, purified (osmotic shock, IMAC, gel filtration)) VHH: DVQLQASGGGLVQPGGSLRLSCAASGFTLVYYGIGWFRQAPGKEREGVSCISSYDGTTYYADSVKGRFTISRDNAKNTVYLQMNSLKPEDTAVYYCATELGNTHRGSYFPKQRVERCHTGDFASWGQGTQVTVSS :: 400000

Continue with the next binder.
// sample sdAb C7 (VHH, source: E. coli Tuner (DE3), periplasmic, purified (osmotic shock, IMAC, gel filtration)) VHH: EVQLQASGGGLVQPGGSLRLSCVASGFTLVYYGIGWFRQAPGKEREGVSCISSNDGSTYYADSVKGRFTISRDAAKNTMYLQMNSLKPEDTAVYYCATELGNTHRGSFFPNRRVERCRTDDFASWGQGTQVTVSS , its kon was 510000
